- target_or_test_system: Carnitine O-palmitoyltransferase 1, liver isoform (Rattus norvegicus, UniProt P32198)
- Sequence (P32198 whole entry): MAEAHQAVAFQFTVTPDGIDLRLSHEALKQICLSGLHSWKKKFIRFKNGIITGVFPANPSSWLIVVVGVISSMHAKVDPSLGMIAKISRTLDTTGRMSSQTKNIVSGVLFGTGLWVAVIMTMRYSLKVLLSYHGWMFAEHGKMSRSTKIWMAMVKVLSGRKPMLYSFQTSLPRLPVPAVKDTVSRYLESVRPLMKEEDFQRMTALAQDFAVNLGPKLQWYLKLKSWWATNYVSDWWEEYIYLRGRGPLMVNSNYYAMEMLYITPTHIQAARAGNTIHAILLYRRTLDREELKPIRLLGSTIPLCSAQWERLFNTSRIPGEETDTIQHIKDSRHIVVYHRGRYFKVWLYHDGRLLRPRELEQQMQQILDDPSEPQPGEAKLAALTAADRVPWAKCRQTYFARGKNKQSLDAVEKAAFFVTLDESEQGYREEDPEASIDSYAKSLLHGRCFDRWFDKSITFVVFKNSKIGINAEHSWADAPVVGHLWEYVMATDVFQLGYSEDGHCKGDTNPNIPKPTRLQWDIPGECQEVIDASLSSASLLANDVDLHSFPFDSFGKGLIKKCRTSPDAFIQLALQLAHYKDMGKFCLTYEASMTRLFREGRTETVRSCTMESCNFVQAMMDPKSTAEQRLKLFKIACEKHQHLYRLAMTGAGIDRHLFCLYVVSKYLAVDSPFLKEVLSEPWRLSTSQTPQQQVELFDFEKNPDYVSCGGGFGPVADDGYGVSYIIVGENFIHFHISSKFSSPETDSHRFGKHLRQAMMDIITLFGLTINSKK
- assay_method_text: SUPPLEMENTARY: Inhibition of Carnitine palmitoyltransferase 1, liver isoform
measurement_name: IC50 (nM)

O=C([C@H]1CCCCN1C(=O)COc1ccccc1)N1Cc2ccc(C3CCOC3)cc2C1 (some centres undefined)	77.2
O=C(O)c1cccc(-c2csc([C@H]3CCCCN3C(=O)COc3ccccc3)n2)n1	301
COc1ccc(Cl)cc1S(=O)(=O)N(C)c1cc(C(=O)Nc2ccc(CC(=O)O)cc2)cc2c1OCO2	362
COc1ccc(Cl)cc1S(=O)(=O)N1CCCCc2ccc(C(=O)Nc3nc(CC(=O)O)cs3)cc21	17
COc1ccc(Cl)cc1S(=O)(=O)n1ccc2ccc(C(=O)Nc3ccc(CC(=O)O)cc3)cc21	82.8
COc1ccc(Cl)cc1S(=O)(=O)N1CCOc2ccc(C(=O)Nc3ccc(CC(=O)O)cc3)cc21	70.2
O=C(COc1ccccc1)N1CCCC[C@@H]1c1noc(-c2cnc3[nH]cnc3c2)n1	238
Nc1cccc(-c2n[nH]c([C@H]3CCCCN3C(=O)COc3ccccc3)n2)c1	815
O=C(O)c1ccc(NC(=O)c2ccc3c(c2)N(S(=O)(=O)c2cccc(Cl)c2)CCS3)cc1	43

====

Reported pIC50 by item:
- target_or_test_system: Carnitine O-palmitoyltransferase 1, liver isoform (Homo sapiens)
- Sequence (P50416 whole entry): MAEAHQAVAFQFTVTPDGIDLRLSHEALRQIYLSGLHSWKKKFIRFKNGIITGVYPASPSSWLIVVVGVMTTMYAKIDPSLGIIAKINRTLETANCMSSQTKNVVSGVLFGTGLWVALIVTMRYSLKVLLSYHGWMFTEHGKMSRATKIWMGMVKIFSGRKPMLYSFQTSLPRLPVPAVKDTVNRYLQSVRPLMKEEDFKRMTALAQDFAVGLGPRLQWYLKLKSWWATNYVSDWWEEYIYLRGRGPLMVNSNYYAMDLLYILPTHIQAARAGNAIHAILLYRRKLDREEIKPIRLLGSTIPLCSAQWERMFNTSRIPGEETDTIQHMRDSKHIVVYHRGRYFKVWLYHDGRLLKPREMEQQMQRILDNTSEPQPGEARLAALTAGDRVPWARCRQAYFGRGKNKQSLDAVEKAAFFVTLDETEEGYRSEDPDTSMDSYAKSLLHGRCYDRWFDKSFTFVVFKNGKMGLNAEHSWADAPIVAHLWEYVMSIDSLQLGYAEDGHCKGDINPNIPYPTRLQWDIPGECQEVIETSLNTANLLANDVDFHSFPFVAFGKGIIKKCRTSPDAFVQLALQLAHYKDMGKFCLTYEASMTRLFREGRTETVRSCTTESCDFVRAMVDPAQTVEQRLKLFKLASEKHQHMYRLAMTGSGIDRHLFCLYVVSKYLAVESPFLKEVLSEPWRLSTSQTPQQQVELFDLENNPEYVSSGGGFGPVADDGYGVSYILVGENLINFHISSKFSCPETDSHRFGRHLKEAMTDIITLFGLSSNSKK
- assay_method_text: SUPPLEMENTARY: Inhibition of Carnitine palmitoyltransferase 1, liver isoform
pIC50: −log10 of the molar value.
measurement_name: pIC50

Cc1cc(C)cc(S(=O)(=O)N2CCSc3ccc(C(=O)Nc4ccc(C(=O)O)cc4)cc32)c1	7.29
COc1ccc(C)cc1S(=O)(=O)n1ccc2ccc(C(=O)Nc3ccc(CC(=O)O)cc3)cc21	6.69
COc1ccc(Cl)cc1S(=O)(=O)N1CCOc2c(C)cc(C(=O)Nc3ccc(CC(=O)O)cc3)cc21	6.56
COc1ccc(Cl)cc1S(=O)(=O)N1CCS(=O)(=O)c2ccc(C(=O)Nc3ccc(C(=O)O)c(F)c3)cc21	6.99
COc1ccc(Cl)cc1S(=O)(=O)c1n[nH]c2ccc(C(=O)Nc3ccccc3)cc12	6.76
O=C(COc1ccccc1)N1CCCC[C@@H]1c1noc(-c2cc([N+](=O)[O-])[nH]n2)n1	6.85
COC[C@@H]1CCN(NC(=O)c2cccc(-c3n[nH]c([C@H]4CCCCN4C(=O)COc4ccccc4)n3)c2)C1	6.80
NS(=O)(=O)c1ccc2c(c1)CN(C(=O)[C@H]1CCCCN1C(=O)COc1ccccc1)CC2	6.08
